# measuredTarget: GST-Nv-NF-kB (Cys allele) (Nematostella vectensis, UniProt E5G601 2-411)
# Sequence: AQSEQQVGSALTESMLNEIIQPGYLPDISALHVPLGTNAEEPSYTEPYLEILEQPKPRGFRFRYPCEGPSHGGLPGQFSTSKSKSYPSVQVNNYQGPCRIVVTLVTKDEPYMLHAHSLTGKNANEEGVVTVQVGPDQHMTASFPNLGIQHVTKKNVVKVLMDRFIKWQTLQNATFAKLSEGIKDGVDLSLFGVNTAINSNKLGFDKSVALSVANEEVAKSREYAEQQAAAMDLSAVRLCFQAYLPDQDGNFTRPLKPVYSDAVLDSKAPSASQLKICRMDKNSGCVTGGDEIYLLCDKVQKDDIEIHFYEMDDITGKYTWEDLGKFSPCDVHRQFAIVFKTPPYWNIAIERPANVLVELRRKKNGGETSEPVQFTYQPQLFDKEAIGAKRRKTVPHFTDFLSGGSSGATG
# measurementProtocol: protein-binding microarray (PBM); PBM: ~300 nM protein, 6 mM HEPES pH 7.8, 80 mM KCl, 0.5 mM EDTA, 0.5 mM EGTA, 6% glycerol, 35 ng/ul poly-dIdC, 1% milk, 1 h, room temperature; Ap Aiptasia and Nv Nematostella (sea anemones) / Co Capsaspora / Aq Amphimedon (sponge) / Dm Drosophila / Hu human; RHD is the Rel homology domain; high values mean tight binding
# testSettings: dsDNA, one strand shown
valueKind: binding signal (z-score)
Use z-score as the unit, but write only the number.

Task item: If you can, please state the reported binding signal value of `CCGATTAACATCAATATCCCCCATGATGTTAATCGGGTCTTGATTCGCTTGACGCTGCTG` .
Reply: 4.94

Task item: If you can, please state the reported binding signal value of `CCGATTAACATCACGGGGGGAAATGATGTTAATCGGGTCTTGATTCGCTTGACGCTGCTG` .
Reply: 6.61

Task item: If you can, please state the reported binding signal value of `CCGATTAACATCAGAAATACCCATGATGTTAATCGGGTCTTGATTCGCTTGACGCTGCTG` .
Reply: 5.32

Task item: If you can, please state the reported binding signal value of `CCGATTAACATCAGGGTTTTTTATGATGTTAATCGGGTCTTGATTCGCTTGACGCTGCTG` .
Reply: 5.06

Task item: If you can, please state the reported binding signal value of `CCGATTAACATCAGGGCACCCCCTGATGTTAATCGGGTCTTGATTCGCTTGACGCTGCTG` .
Reply: 4.52

Task item: If you can, please state the reported binding signal value of `CCGATTAACATCAACTTTCCCCCTGATGTTAATCGGGTCTTGATTCGCTTGACGCTGCTG` .
Reply: 7.45

Task item: If you can, please state the reported binding signal value of `CCGATTAACATCACGGAACCCCCTGATGTTAATCGGGTCTTGATTCGCTTGACGCTGCTG` .
Reply: 4.89

Task item: If you can, please state the reported binding signal value of `CCGATTAACATCAGCACCCCCCCTGATGTTAATCGGGTCTTGATTCGCTTGACGCTGCTG` .
Reply: 3.51

Task item: If you can, please state the reported binding signal value of `CCGATTAACATCAATTCACCCCCTGATGTTAATCGGGTCTTGATTCGCTTGACGCTGCTG` .
Reply: 3.65

Task item: If you can, please state the reported binding signal value of `CCGATTAACATCAGGATTCTCCCTGATGTTAATCGGGTCTTGATTCGCTTGACGCTGCTG` .
Reply: 4.71

Task item: If you can, please state the reported binding signal value of `CCGATTAACATCAAAAACTCCCCTGATGTTAATCGGGTCTTGATTCGCTTGACGCTGCTG` .
Reply: 8.96

Task item: If you can, please state the reported binding signal value of `CCGATTAACATCAAACATCCCCTTGATGTTAATCGGGTCTTGATTCGCTTGACGCTGCTG` .
Reply: 7.13

Task item: If you can, please state the reported binding signal value of `CCGATTAACATCAGACTTTCCCCTGATGTTAATCGGGTCTTGATTCGCTTGACGCTGCTG` .
Reply: 7.69

Task item: If you can, please state the reported binding signal value of `CCGATTAACATCAGAGTCCCCCCTGATGTTAATCGGGTCTTGATTCGCTTGACGCTGCTG` .
Reply: 5.02

Task item: If you can, please state the reported binding signal value of `CCGATTAACATCAATAAACCCCCTGATGTTAATCGGGTCTTGATTCGCTTGACGCTGCTG` .
Reply: 6.85

Task item: If you can, please state the reported binding signal value of `CCGATTAACATCAGGGAACTCCCTGATGTTAATCGGGTCTTGATTCGCTTGACGCTGCTG` .
Reply: 10.6

Task item: If you can, please state the reported binding signal value of `CCGATTAACATCAGACATTTCCCTGATGTTAATCGGGTCTTGATTCGCTTGACGCTGCTG` .
Reply: 4.75

Task item: If you can, please state the reported binding signal value of `CCGATTAACATCAGGGGGAGAAATGATGTTAATCGGGTCTTGATTCGCTTGACGCTGCTG` .
Reply: 6.13

Task item: If you can, please state the reported binding signal value of `CCGATTAACATCAGGGGATGAACTGATGTTAATCGGGTCTTGATTCGCTTGACGCTGCTG` .
Reply: 3.65

Task item: If you can, please state the reported binding signal value of `CCGATTAACATCAGGGGCCCCCCTGATGTTAATCGGGTCTTGATTCGCTTGACGCTGCTG` .
Reply: 3.78

Task item: If you can, please state the reported binding signal value of `CCGATTAACATCAGGGATTCCACTGATGTTAATCGGGTCTTGATTCGCTTGACGCTGCTG` .
Reply: 1.75

Task item: If you can, please state the reported binding signal value of `CCGATTAACATCAGGGGGCAAGATGATGTTAATCGGGTCTTGATTCGCTTGACGCTGCTG` .
Reply: 2.14

Task item: If you can, please state the reported binding signal value of `CCGATTAACATCAAGAAGTCCCCTGATGTTAATCGGGTCTTGATTCGCTTGACGCTGCTG` .
Reply: 7.86

Task item: If you can, please state the reported binding signal value of `CCGATTAACATCAGAGTTTCCCATGATGTTAATCGGGTCTTGATTCGCTTGACGCTGCTG` .
Reply: 3.42

Task item: If you can, please state the reported binding signal value of `CCGATTAACATCAAAATACTCCCTGATGTTAATCGGGTCTTGATTCGCTTGACGCTGCTG` .
Reply: 4.6

Task item: If you can, please state the reported binding signal value of `CCGATTAACATCAAAAGAATCCCTGATGTTAATCGGGTCTTGATTCGCTTGACGCTGCTG` .
Reply: 3.59

Task item: If you can, please state the reported binding signal value of `CCGATTAACATCAAAAAGTCCCGTGATGTTAATCGGGTCTTGATTCGCTTGACGCTGCTG` .
Reply: 9.76

Task item: If you can, please state the reported binding signal value of `CCGATTAACATCAGAGAATTCCCTGATGTTAATCGGGTCTTGATTCGCTTGACGCTGCTG` .
Reply: 7.57

Task item: If you can, please state the reported binding signal value of `CCGATTAACATCAGGGGATGACCTGATGTTAATCGGGTCTTGATTCGCTTGACGCTGCTG` .
Reply: 4.14

Task item: If you can, please state the reported binding signal value of `CCGATTAACATCAGTAATCCCCATGATGTTAATCGGGTCTTGATTCGCTTGACGCTGCTG` .
Reply: 5.74

Task item: If you can, please state the reported binding signal value of `CCGATTAACATCACCCAACCCCCTGATGTTAATCGGGTCTTGATTCGCTTGACGCTGCTG` .
Reply: 2.94

Task item: If you can, please state the reported binding signal value of `CCGATTAACATCAGGGGACATTATGATGTTAATCGGGTCTTGATTCGCTTGACGCTGCTG` .
Reply: 5.19

Task item: If you can, please state the reported binding signal value of `CCGATTAACATCAGGATTCCCCCTGATGTTAATCGGGTCTTGATTCGCTTGACGCTGCTG` .
Reply: 10.5

Task item: If you can, please state the reported binding signal value of `CCGATTAACATCAGGGAATTCTATGATGTTAATCGGGTCTTGATTCGCTTGACGCTGCTG` .
Reply: 6.52

Task item: If you can, please state the reported binding signal value of `CCGATTAACATCAATAGTTCCCCTGATGTTAATCGGGTCTTGATTCGCTTGACGCTGCTG` .
Reply: 6.96

Task item: If you can, please state the reported binding signal value of `CCGATTAACATCAGGGGTCCCCATGATGTTAATCGGGTCTTGATTCGCTTGACGCTGCTG` .
Reply: 2.57
